Values from the supplement of paper PMC6757056

B1: library; a variant is named by its letters at N, in order (parent)
chain: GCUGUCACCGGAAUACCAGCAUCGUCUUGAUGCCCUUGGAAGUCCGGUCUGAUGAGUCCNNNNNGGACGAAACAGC

Variants of: B1
Assay: FACS-Seq fitted mean relative fluorescence mCherry/BFP with ligand (log10 relative fluorescence); ligand concentration (+) FACS-Seq: 1 mM; higher = higher reporter protein expression
Conditions: HEK293T, ligand present: yes
Rule: yes for FACS-Seq fitted mean (log10) not less than 0.7, no for anything less.

>>> df
    mutation_annotation  category_label
 0                UAUGU              no
 1                CUCAC             yes
 2                AAAAG              no
 3                AAGUG             yes
 4                UUAAC             yes
 5                CCAAU             yes
 6                CGAAU              no
 7                AACAC             yes
 8                UGAGU              no
 9                AGGAC             yes
10                ACAGG              no
11                ACCCA             yes
12                CGGAC             yes
13                ACAUA              no
14                UGAUC              no
15                AGGAG             yes
16                CGGUA              no
17                ACACG             yes
18                CGUAU              no
19                CCCGA             yes
20                ACAGU             yes
21                UUAAA              no
22                UUCCG             yes
23                GAUUU              no
24                UGAUG             yes
25                UCACA             yes
26                ACACC             yes
27                CCCAU             yes
28                CACCC             yes
29                GAAUA             yes
30                GAAAA             yes
31                AUGGU             yes
32                CUGUC              no
33                AGCUA             yes
34                ACGCC             yes
35                AAUUG              no
36                CAGCC             yes
37                CGGCA             yes
38                CCUUU             yes
39                CCUAC             yes
40                UAUUG             yes
41                ACACA              no
42                AAGAC             yes
43                CGCAC              no
